Entry source: PubChem BioAssay AID1963421

system: 519858-162-T-J1-PDC complex spheroid growth, % test/control; assay: Anticancer human tumor 519858-162-T-J1-PDC patient-derived colon adenocarcinoma cell line growth inhibition [Asc]; settings: second compound 0.0316 µM; first compound 0.1 µM; active compounds read low
The following compounds are shown together with reported viability, T/C values.
parameter_measured: viability, T/C

compound	result
COc1c(OCCCN2CCOCC2)ccc2c3n(c(=NC(=O)c4cnc(N)nc4)nc12)CCN3 + CNC(C)C(=O)NC1CN(S(=O)(=O)c2cccc(S(=O)(=O)N3CCC4CCC(C(=O)NC(c5ccccc5)c5ccccc5)N4C(=O)C(NC(=O)C(C)NC)C3)c2)CCC2CCC(C(=O)NC(c3ccccc3)c3ccccc3)N2C1=O	54.9%
NC1CCC(NC2CC2c2ccccc2)CC1 (stereo not given) + Cc1c(S(C)(=O)=O)c(-c2cc(F)cc(N3CCN(c4ccc(NS(=O)(=O)c5ccc(NC(CCN6CCC(C(=O)OCCCP(=O)(O)O)CC6)CSc6ccccc6)c(S(=O)(=O)C(F)(F)F)c5)cc4)CC3)c2)c(-c2ccc(Cl)cc2)n1C(C)C	70.6%
CNC(C)C(=O)NC1CN(S(=O)(=O)c2cccc(S(=O)(=O)N3CCC4CCC(C(=O)NC(c5ccccc5)c5ccccc5)N4C(=O)C(NC(=O)C(C)NC)C3)c2)CCC2CCC(C(=O)NC(c3ccccc3)c3ccccc3)N2C1=O (stereo not given) + Cc1c(S(C)(=O)=O)c(-c2cc(F)cc(N3CCN(c4ccc(NS(=O)(=O)c5ccc(NC(CCN6CCC(C(=O)OCCCP(=O)(O)O)CC6)CSc6ccccc6)c(S(=O)(=O)C(F)(F)F)c5)cc4)CC3)c2)c(-c2ccc(Cl)cc2)n1C(C)C	110%
C=CC(=O)N1CCN(c2nc(=O)n(-c3c(C)ccnc3C(C)C)c3nc(-c4c(O)cccc4F)c(F)cc23)C(C)C1 (stereo not given) + Cc1c(S(C)(=O)=O)c(-c2cc(F)cc(N3CCN(c4ccc(NS(=O)(=O)c5ccc(NC(CCN6CCC(C(=O)OCCCP(=O)(O)O)CC6)CSc6ccccc6)c(S(=O)(=O)C(F)(F)F)c5)cc4)CC3)c2)c(-c2ccc(Cl)cc2)n1C(C)C	97.2%
C#Cc1c(F)ccc2cc(O)cc(-c3ncc4c(N5CC6CCC(C5)N6)nc(OCC56CCCN5CC(F)C6)nc4c3F)c12 (stereo not given) + Cc1c(S(C)(=O)=O)c(-c2cc(F)cc(N3CCN(c4ccc(NS(=O)(=O)c5ccc(NC(CCN6CCC(C(=O)OCCCP(=O)(O)O)CC6)CSc6ccccc6)c(S(=O)(=O)C(F)(F)F)c5)cc4)CC3)c2)c(-c2ccc(Cl)cc2)n1C(C)C	88.2%

* * *

system: 519858-162-T-J1-PDC complex spheroid growth, % test/control; assay: Anticancer human tumor 519858-162-T-J1-PDC cell line growth inhibition [Asc]; details: second compound 0.03 µM; first compound 0.1 µM; active compounds read low;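 note: seven day drug exposure begun three days after spheroid seeding; 100% = DMSO vehicle wells and lower values mean less viable spheroid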
The following compounds are shown together with reported viability, T/C values.

compound	tested_system	result_unit	viability, T/C
COc1c(OCCCN2CCOCC2)ccc2c3n(c(=NC(=O)c4cnc(N)nc4)nc12)CCN3 + CCN1C(C(=O)NC23CCC(C(=O)O)(CC2)CC3)C(c2cccc(Cl)c2F)C2(C(=O)Nc3cc(Cl)ccc32)C12CCCCC2	519858-162-T-J1-PDC complex spheroid growth, % test/control	%	80.3
C#Cc1c(F)ccc2cc(O)cc(-c3ncc4c(N5CC6CCC(C5)N6)nc(OCC56CCCN5CC(F)C6)nc4c3F)c12 (stereo not given) + CCN1C(C(=O)NC23CCC(C(=O)O)(CC2)CC3)C(c2cccc(Cl)c2F)C2(C(=O)Nc3cc(Cl)ccc32)C12CCCCC2	519858-162-T-J1-PDC complex spheroid growth, % test/control	%	84.6
Cn1ncnc1[C@H]1c2n[nH]c(=O)c3cc(F)cc(c23)N[C@@H]1c1ccc(F)cc1 + CCN1C(C(=O)NC23CCC(C(=O)O)(CC2)CC3)C(c2cccc(Cl)c2F)C2(C(=O)Nc3cc(Cl)ccc32)C12CCCCC2	519858-162-T-J1-PDC complex spheroid growth, % test/control	%	65.5
CCN1CCN(Cc2ccc(Nc3ncc(F)c(-c4cc(F)c5nc(C)n(C(C)C)c5c4)n3)nc2)CC1 + CCN1C(C(=O)NC23CCC(C(=O)O)(CC2)CC3)C(c2cccc(Cl)c2F)C2(C(=O)Nc3cc(Cl)ccc32)C12CCCCC2	519858-162-T-J1-PDC complex spheroid growth, % test/control	%	105
CNC(C)C(=O)NC1CN(S(=O)(=O)c2cccc(S(=O)(=O)N3CCC4CCC(C(=O)NC(c5ccccc5)c5ccccc5)N4C(=O)C(NC(=O)C(C)NC)C3)c2)CCC2CCC(C(=O)NC(c3ccccc3)c3ccccc3)N2C1=O (stereo not given) + CCN1C(C(=O)NC23CCC(C(=O)O)(CC2)CC3)C(c2cccc(Cl)c2F)C2(C(=O)Nc3cc(Cl)ccc32)C12CCCCC2	519858-162-T-J1-PDC complex spheroid growth, % test/control	%	79

* * *

test system: 519858-162-T-J1-PDC complex spheroid growth, % test/control; experiment: Anticancer human tumor 519858-162-T-J1-PDC cell line growth inhibition [Asc]; details: second compound 0.00949 µM; first compound 0.1 µM; active compounds read low;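 note: seven day drug exposure begun three days after spheroid seeding; 100% = DMSO vehicle wells and lower values mean less viable spheroid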
viability, T/C vs 90%: less than gives YES; not less than gives NO.

compound	class_label
O=C(c1cc(Cc2n[nH]c(=O)c3ccccc23)ccc1F)N1CCN(C(=O)C2CC2)CC1 + CCN1C(C(=O)NC23CCC(C(=O)O)(CC2)CC3)C(c2cccc(Cl)c2F)C2(C(=O)Nc3cc(Cl)ccc32)C12CCCCC2	YES
COc1c(OCCCN2CCOCC2)ccc2c3n(c(=NC(=O)c4cnc(N)nc4)nc12)CCN3 + CCN1C(C(=O)NC23CCC(C(=O)O)(CC2)CC3)C(c2cccc(Cl)c2F)C2(C(=O)Nc3cc(Cl)ccc32)C12CCCCC2	YES
C=CC(=O)N1CCN(c2nc(=O)n(-c3c(C)ccnc3C(C)C)c3nc(-c4c(O)cccc4F)c(F)cc23)C(C)C1 (stereo unspecified) + CCN1C(C(=O)NC23CCC(C(=O)O)(CC2)CC3)C(c2cccc(Cl)c2F)C2(C(=O)Nc3cc(Cl)ccc32)C12CCCCC2	NO
O=C(c1ccc(F)c(F)c1Nc1ccc(I)cc1F)N1CC(O)([C@@H]2CCCCN2)C1 + CCN1C(C(=O)NC23CCC(C(=O)O)(CC2)CC3)C(c2cccc(Cl)c2F)C2(C(=O)Nc3cc(Cl)ccc32)C12CCCCC2	NO

* * *

system: 519858-162-T-J1-PDC complex spheroid growth, % test/control; assay: Anticancer human tumor 519858-162-T-J1-PDC cell line growth inhibition [Asc]; settings: second compound 0.0316 µM; first compound 0.0316 µM; active compounds read low;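 note: seven day drug exposure begun three days after spheroid seeding; 100% = DMSO vehicle wells and lower values mean less viable spheroid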
viability, T/C vs 80%: less than gives y; not less than gives n.

compound	class_label
O=C(c1cc(Cc2n[nH]c(=O)c3ccccc23)ccc1F)N1CCN(C(=O)C2CC2)CC1 + CNC(C)C(=O)NC1CN(S(=O)(=O)c2cccc(S(=O)(=O)N3CCC4CCC(C(=O)NC(c5ccccc5)c5ccccc5)N4C(=O)C(NC(=O)C(C)NC)C3)c2)CCC2CCC(C(=O)NC(c3ccccc3)c3ccccc3)N2C1=O	n
NC1CCC(NC2CC2c2ccccc2)CC1 (configuration not stated) + CNC(C)C(=O)NC1CN(S(=O)(=O)c2cccc(S(=O)(=O)N3CCC4CCC(C(=O)NC(c5ccccc5)c5ccccc5)N4C(=O)C(NC(=O)C(C)NC)C3)c2)CCC2CCC(C(=O)NC(c3ccccc3)c3ccccc3)N2C1=O	n
COc1c(OCCCN2CCOCC2)ccc2c3n(c(=NC(=O)c4cnc(N)nc4)nc12)CCN3 + CNC(C)C(=O)NC1CN(S(=O)(=O)c2cccc(S(=O)(=O)N3CCC4CCC(C(=O)NC(c5ccccc5)c5ccccc5)N4C(=O)C(NC(=O)C(C)NC)C3)c2)CCC2CCC(C(=O)NC(c3ccccc3)c3ccccc3)N2C1=O	y
CCN1CCN(Cc2ccc(Nc3ncc(F)c(-c4cc(F)c5nc(C)n(C(C)C)c5c4)n3)nc2)CC1 + CNC(C)C(=O)NC1CN(S(=O)(=O)c2cccc(S(=O)(=O)N3CCC4CCC(C(=O)NC(c5ccccc5)c5ccccc5)N4C(=O)C(NC(=O)C(C)NC)C3)c2)CCC2CCC(C(=O)NC(c3ccccc3)c3ccccc3)N2C1=O	n
Cn1ncnc1[C@H]1c2n[nH]c(=O)c3cc(F)cc(c23)N[C@@H]1c1ccc(F)cc1 + Cc1c(S(C)(=O)=O)c(-c2cc(F)cc(N3CCN(c4ccc(NS(=O)(=O)c5ccc(NC(CCN6CCC(C(=O)OCCCP(=O)(O)O)CC6)CSc6ccccc6)c(S(=O)(=O)C(F)(F)F)c5)cc4)CC3)c2)c(-c2ccc(Cl)cc2)n1C(C)C	y
C#Cc1c(F)ccc2cc(O)cc(-c3ncc4c(N5CC6CCC(C5)N6)nc(OCC56CCCN5CC(F)C6)nc4c3F)c12 (configuration not stated) + Cc1c(S(C)(=O)=O)c(-c2cc(F)cc(N3CCN(c4ccc(NS(=O)(=O)c5ccc(NC(CCN6CCC(C(=O)OCCCP(=O)(O)O)CC6)CSc6ccccc6)c(S(=O)(=O)C(F)(F)F)c5)cc4)CC3)c2)c(-c2ccc(Cl)cc2)n1C(C)C	n
